TARGET_SYSTEM: UniProtKB O77255
Sequence (O77255 219-541): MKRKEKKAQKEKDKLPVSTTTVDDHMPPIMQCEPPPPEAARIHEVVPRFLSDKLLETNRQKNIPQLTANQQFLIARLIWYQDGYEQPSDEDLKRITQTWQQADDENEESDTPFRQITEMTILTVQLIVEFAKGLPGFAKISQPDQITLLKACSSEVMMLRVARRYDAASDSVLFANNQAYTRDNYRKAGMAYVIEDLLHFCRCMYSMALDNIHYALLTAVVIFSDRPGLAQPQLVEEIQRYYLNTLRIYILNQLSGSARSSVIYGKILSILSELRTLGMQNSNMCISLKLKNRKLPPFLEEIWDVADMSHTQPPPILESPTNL
Sequence (P28702 1-533 partner): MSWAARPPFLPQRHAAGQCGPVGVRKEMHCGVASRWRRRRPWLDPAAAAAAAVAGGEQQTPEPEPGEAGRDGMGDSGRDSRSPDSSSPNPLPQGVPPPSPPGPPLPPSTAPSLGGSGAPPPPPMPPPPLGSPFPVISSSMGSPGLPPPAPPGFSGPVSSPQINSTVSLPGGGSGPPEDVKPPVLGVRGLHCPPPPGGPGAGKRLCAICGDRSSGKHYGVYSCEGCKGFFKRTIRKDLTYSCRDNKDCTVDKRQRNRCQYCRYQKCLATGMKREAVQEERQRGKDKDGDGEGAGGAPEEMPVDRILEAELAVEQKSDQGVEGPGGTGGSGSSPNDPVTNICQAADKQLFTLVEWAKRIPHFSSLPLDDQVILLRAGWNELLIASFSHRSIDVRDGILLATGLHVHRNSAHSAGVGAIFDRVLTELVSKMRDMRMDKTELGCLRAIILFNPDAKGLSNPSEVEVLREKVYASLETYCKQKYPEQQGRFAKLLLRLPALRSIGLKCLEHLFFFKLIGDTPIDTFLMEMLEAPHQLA
METHOD_SUMMARY: Two-hybrid gene switch assay, luciferase reporter, wild-type CfEcR, mouse NIH3T3 cells
TEST_CONTEXT: FIG. 15; CfEcR, GAL4-EcR (DEF) / VP16-RXR-USP chimera
OBSERVABLE: EC50

Problem: Please report the recorded EC50 for C[C@H]([C@H](O)CCC(C)(C)O)[C@H]1CC[C@@]2(O)C3=CC(=O)[C@@H]4C[C@@H](O)[C@@H](O)C[C@]4(C)[C@H]3CC[C@]12C [ecdysone] .
Solution: > 33 µM
